Biological target: human A2A receptor (A2AR) (Homo sapiens (Human))
Sequence (P29274 whole entry): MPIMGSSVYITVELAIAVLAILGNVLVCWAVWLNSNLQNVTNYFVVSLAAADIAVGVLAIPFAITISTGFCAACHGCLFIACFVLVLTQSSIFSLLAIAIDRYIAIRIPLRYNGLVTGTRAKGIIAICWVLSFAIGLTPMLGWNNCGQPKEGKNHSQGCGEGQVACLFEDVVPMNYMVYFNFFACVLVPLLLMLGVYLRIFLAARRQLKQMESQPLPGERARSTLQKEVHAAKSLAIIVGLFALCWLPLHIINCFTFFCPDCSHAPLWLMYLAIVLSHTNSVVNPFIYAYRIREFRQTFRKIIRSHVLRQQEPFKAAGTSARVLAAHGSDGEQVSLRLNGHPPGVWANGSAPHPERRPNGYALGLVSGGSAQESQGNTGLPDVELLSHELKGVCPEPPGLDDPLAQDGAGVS
Assay: Luciferase reporter assay (HEK293-A2AR-luc2p/CRE/Hygro cells)
Format: cell-based
Details: 3 nM CGS21680, 5 h incubation
ASSAY METRIC: IC50 (nM)

A = CC(C(=O)NCc1cc(F)ccn1)(c1ccccc1)n1ncc2c1nc(N)n1nc(-c3ccco3)nc21 (stereo not shown)
B = C[C@](C(=O)N[C@H]1COC[C@@H]1O)(c1ccccc1)n1ncc2c1nc(N)n1nc(-c3ccco3)nc21 [Example 106B]
C = C[C@](C(=O)N[C@@H]1CCC[C@@H]1O)(c1ccccc1)n1ncc2c1nc(N)n1nc(-c3ccco3)nc21 [Example 48B]
Put these in order: smallest IC50 first, largest last. Answer by listing the labels in the requested order.
C, A, B
(C: 1.6 nM, A: 7.2 nM, B: 41.7 nM)
